Molecular target: S1PR1 (Homo sapiens)
Construct: expressed in transfected cells
Assay: In vitro S1PR1 agonistic activity, PathHunter cell line, chemiluminescent detection
Type: cell-based
Conditions: % activity vs maximum control ligand
Counter-ions that a name gives are not always drawn.
VALUE KIND: Emax (%)

| MOLECULE | STUDY TARGET | VAL |
| --- | --- | --- |
| CC(C)Oc1ccc(-c2ncc(-c3cccc4c3CCC43CCN(C(=O)CO)C3)cn2)cc1C#N (stereo not shown) | S1PR1 (Homo sapiens) | 84.2 |
| CC(C)Oc1ccc(-c2nc(-c3cccc4c3CCC43CCN(CC4(C(=O)O)CCC4)C3)no2)cc1C#N (stereo not shown) [Hydrochloride of compound 23] | S1PR1 (Homo sapiens) | 68.3 |
| CC(C)Oc1ccc(-c2nc(-c3cccc4c3CCC43CCN(C(=O)CO)C3)no2)cc1C(F)F (stereo not shown) | S1PR1 (Homo sapiens) | 87.6 |
| CC(C)Oc1ccc(-c2nsc(-c3cccc4c3CCC43CCN(C(=O)CO)C3)n2)cc1C#N (stereo not shown) | S1PR1 (Homo sapiens) | 77.8 |
| O=C(O)C1(CN2CCC3(CCc4c(-c5noc(-c6ccc(C7CCCC7)c(C(F)(F)F)c6)n5)cccc43)C2)CC1 (stereo not shown) [Hydrochloride of compound 38] | S1PR1 (Homo sapiens) | 100 |
| CC(C)Oc1ccc(-c2nc(-c3cccc4c3CCC43CCN(C(=O)CO)C3)no2)cc1Br (stereo not shown) | S1PR1 (Homo sapiens) | 101 |
| CC(C)Oc1ncc(-c2nc(-c3cccc4c3CCC43CCN(C(=O)CO)C3)no2)cc1C#N (stereo not shown) | S1PR1 (Homo sapiens) | 96.8 |

* * *

Target: S1PR1 (Homo sapiens, UniProt P21453)
Construct: expressed in transfected cells
Sequence (P21453 whole entry): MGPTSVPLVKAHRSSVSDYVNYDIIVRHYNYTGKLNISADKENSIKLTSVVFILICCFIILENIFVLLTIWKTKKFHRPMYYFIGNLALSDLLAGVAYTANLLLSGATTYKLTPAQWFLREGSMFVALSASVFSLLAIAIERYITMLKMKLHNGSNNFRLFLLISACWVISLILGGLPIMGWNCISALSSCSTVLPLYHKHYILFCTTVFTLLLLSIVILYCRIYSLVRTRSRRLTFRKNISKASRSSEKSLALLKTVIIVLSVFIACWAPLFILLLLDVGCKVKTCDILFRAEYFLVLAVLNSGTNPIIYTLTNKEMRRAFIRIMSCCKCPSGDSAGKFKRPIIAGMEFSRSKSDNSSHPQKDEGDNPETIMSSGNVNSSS
Assay: In vitro S1PR1 agonistic activity, PathHunter cell line, chemiluminescent detection
Type: cell-based
Conditions: 90-180 min at 37° C.
Structures can show the parent of a compound that is named as a salt.
VALUE KIND: EC50 (nM)

Field: example entries. Status: answers known.
| MOLECULE | UOM | EC50 |
| --- | --- | --- |
| CC(C)Oc1ccc(-c2ncc(-c3cccc4c3CCC43CCN(CC4(C(=O)O)CC4)C3)s2)cc1C#N (stereo not shown) [Hydrochloride of compound 26] | nM | 4.47 |
| COc1cc(-c2nc(-c3cccc4c3CCC43CCN(CC4(C(=O)O)CC4)C3)no2)cc(C2CCCC2)n1 (stereo not shown) | nM | 2.82 |
| CC(C)Oc1ccc(-c2nc(-c3cccc4c3CCC43CCN(CC4(C(=O)O)CCC4)C3)no2)cc1C#N (stereo not shown) [Hydrochloride of compound 23] | nM | 0.0353 |

[A] CC(C)Cc1ccc(-c2nc(-c3cccc4c3CCC43CCN(CC4(C(=O)O)CC4)C3)no2)cc1 (stereo not shown) [Hydrochloride of compound 46]
[B] CC(C)Oc1ccc(-c2nc(-c3cccc4c3CCC43CCN(C(=O)[C@H](O)CO)C3)no2)cc1C#N (stereo partly shown) [Hydrochloride of compound 44]
[C] CC(C)Oc1ccc(-c2nnc(-c3cccc4c3CCC43CCN(CC4(C(=O)O)CC4)C3)s2)cc1C#N (stereo not shown) [Hydrochloride of compound 28]
[D] CC(C)Oc1ccc(-c2nc(-c3cccc4c3CCC43CCN(C(=O)CS(C)(=O)=O)C3)no2)cc1C#N (stereo not shown)
Ranking field: EC50; order: falling. Please write the labels in the order that was asked for.
A, C, B, D

* * *

Target: S1PR1 (Homo sapiens)
Construct: expressed in transfected cells
Test: In vitro S1PR1 agonistic activity, U2OS-EDG1 cells, LiveBLAzer-FRET B/G (CCF4-AM)
Type: cell-based
Conditions: 20 hours incubation
Structures can show the parent of a compound that is named as a salt.
VALUE KIND: EC50 (nM)

Field: example entries. Status: answers known.
| COMPOUND | STUDY TARGET | EC50 (nM) |
| --- | --- | --- |
| CC(C)Oc1ccc(-c2nc(-c3cccc4c3CCC43CCN(CC4(C(=O)O)CC4)C3)no2)cc1C#N (single isomer, unassigned) [Compound 22A] | S1PR1 (Homo sapiens) | 0.15 |
| CC(C)Oc1ccc(-c2nc(-c3cccc4c3CCC43CCN(CC4(C(=O)O)CC4)C3)no2)cc1C(F)F (centres unmarked) [Hydrochloride of compound 29] | S1PR1 (Homo sapiens) | 0.0211 |
| CC(C)Oc1ncc(-c2nc(-c3cccc4c3CCC43CCN(CC4(C(=O)O)CC4)C3)no2)cc1C#N (centres unmarked) [Hydrochloride of compound 32] | S1PR1 (Homo sapiens) | 1.45 |
| CC(C)Oc1ccc(-c2nc(-c3cccc4c3CCC43CCN(CC4(C(=O)O)CC4)C3)no2)cc1C#N (single isomer, unassigned) [Compound 22B] | S1PR1 (Homo sapiens) | 0.32 |

[A] CC(C)Oc1ccc(-c2nc(-c3cccc4c3CCC43CCN(CC4(C(=O)O)CC4)C3)no2)cc1Br (centres unmarked) [Hydrochloride of compound 30]
[B] N#Cc1cc(-c2nc(-c3cccc4c3CCC43CCN(CC4(C(=O)O)CC4)C3)no2)ccc1OC1CCCC1 (centres unmarked) [Hydrochloride of compound 31]
From the recorded data, which exceeds the other in EC50: A or B ? Indicate which entry you chose by stating its label.
B
(B: 0.456 nM, A: 0.132 nM)

[P] N#Cc1cc(-c2nc(-c3cccc4c3CCC43CCN(CC4(C(=O)O)CC4)C3)no2)ccc1OC(F)F (centres unmarked) [Hydrochloride of compound 34]
[Q] CC(C)Nc1ncc(-c2nc(-c3cccc4c3CCC43CCN(CC4(C(=O)O)CC4)C3)no2)cc1C#N (centres unmarked) [Hydrochloride of compound 33]
Of P and Q , whose reported EC50 is numerically smaller? Indicate which entry you chose by stating its label.
P
(P: 6.07 nM, Q: 10.2 nM)

* * *

Assay: Pharmacokinetic evaluation in SD rats (intravenous and oral)
Format: in vivo
Details: male, Sprague-Dawley, plasma; SD rat; intravenous 1.0 mg/kg, oral 3.0 mg/kg; read-out: Bioavailability F
VALUE KIND: bioavailability (%)
Reply with just the number (in %).

What does the data say about its bioavailability? Entry: CC(C)Oc1ccc(-c2nc(-c3cccc4c3CCC43CCN(C(=O)CO)C3)no2)cc1C#N (stereo not shown)
83.1

* * *

Test: Pharmacokinetic evaluation in SD rats at different oral doses
Type: in vivo, Sprague Dawley rats
Conditions: male, Sprague-Dawley, rat, plasma, po, 5 mg/kg, single oral administration 5 mg/kg, read-out: Peak concentration Cmax
Counter-ions that a name gives are not always drawn.
VALUE KIND: Cmax (nM)

| COMPOUND | VALUE KIND | VAL |
| --- | --- | --- |
| CC(C)Oc1ccc(-c2nc(-c3cccc4c3CCC43CCN(CC4(C(=O)O)CC4)C3)no2)cc1C#N (centres unmarked) [Hydrochloride of compound 22] | Cmax | 2400 |
| CC(C)Oc1ccc(-c2nc(-c3cccc4c3CCC43CCN(CC4(C(=O)O)CC4)C3)no2)cc1C#N (single isomer, unassigned) [Compound 22B] | Cmax | 2940 |

* * *

Assay: Pharmacokinetic evaluation in SD rats (intravenous and oral)
Type: in vivo
Conditions: male, Sprague-Dawley, plasma; SD rat; oral administration 2.0 mg/kg; read-out: Half-life T1/2 (PO) (converted)
VALUE KIND: half-life (h)

[P] COc1cc(-c2nc(-c3cccc4c3CCC43CCN(CC4(C(=O)O)CC4)C3)no2)cc(C2CCCC2)n1 (centres unmarked) [Compound 40]
[Q] CC(C)Oc1ccc(-c2nc(-c3cccc4c3CCC43CCN(C(=O)[C@@H](O)CO)C3)no2)cc1C#N (some centres unmarked) [Compound 45]
From the recorded data, which exceeds the other in half-life: P or Q ? Indicate which entry you chose by stating its label.
Q
(Q: 13.2 h, P: 8.83 h)

* * *

Experiment: Pharmacokinetic evaluation in SD rats (intravenous and oral)
Format: in vivo
Conditions: male, Sprague-Dawley, plasma; SD rat; oral administration 3.0 mg/kg; read-out: Half-life T1/2 (PO) (converted)
VALUE KIND: half-life (h)
Reply with just the number (in h).

What does the data say about its half-life? Entry: CC(C)Oc1ccc(-c2nc(-c3cccc4c3CCC43CCN(C(=O)CO)C3)no2)cc1C#N (stereo not shown)
4.91

* * *

Target: S1PR1 (Homo sapiens, UniProt P21453)
Construct: expressed in transfected cells
Experiment: In vitro S1PR1 agonistic activity, PathHunter cell line, chemiluminescent detection
Assay type: cell-based
Conditions: 90-180 min at 37° C.
Structures can show the parent of a compound that is named as a salt.
VALUE KIND: EC50 (nM)

Field: example entries. Status: answers known.
| COMPOUND | STUDY TARGET | EC50 (nM) |
| --- | --- | --- |
| CC(C)Oc1ccc(-c2nsc(-c3cccc4c3CCC43CCN(C(=O)CO)C3)n2)cc1C#N (stereo not shown) [Compound 16] | S1PR1 (Homo sapiens, UniProt P21453) | 14.4 |
| CC(C)Oc1ccc(-c2nc(-c3cccc4c3CCC43CCN(C(=O)CO)C3)no2)cc1Cl (stereo not shown) [Compound 11] | S1PR1 (Homo sapiens, UniProt P21453) | 1.78 |
| CC(C)Oc1ccc(-c2nnc(-c3cccc4c3CCC43CCN(C(=O)CO)C3)s2)cc1C#N (stereo not shown) [Compound 15] | S1PR1 (Homo sapiens, UniProt P21453) | 2.2 |
| CC(C)Oc1ncc(-c2nc(-c3cccc4c3CCC43CCN(C(=O)CO)C3)no2)cc1C#N (stereo not shown) [Compound 8] | S1PR1 (Homo sapiens, UniProt P21453) | 0.188 |
| O=C(O)C1(CN2CCC3(CCc4c(-c5noc(-c6ccc(C7CCCCC7)c(C(F)(F)F)c6)n5)cccc43)C2)CC1 (stereo not shown) [Hydrochloride of compound 37] | S1PR1 (Homo sapiens, UniProt P21453) | 0.047 |

[I] CC(C)Oc1ccc(-c2nc(-c3cccc4c3CCC43CCN(C(=O)CO)C3)ns2)cc1C#N (stereo not shown) [Compound 20]
[II] CC(C)Oc1ccc(-c2cnc(-c3cccc4c3CCC43CCN(C(=O)CO)C3)cn2)cc1C#N (stereo not shown) [Compound 19]
From the recorded data, which exceeds the other in EC50: I or II ? Indicate which entry you chose by stating its label.
I
